Please provide measured %Inh for the entries that follow.
Test system: TBK1
Condition details: concentration: 1 μM, replicates: in singlicate; n = 1;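 note: KINOMEscan kinase panel screen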
Give bare numbers, in %.

Previously resolved entries follow.
O=C(Nc1ccc2c(c1)OCO2)NC1CCN(c2ccnc(NCc3ccc(F)cc3)n2)CC1 = 2
COC(=O)c1c(-c2ccccc2)c2cc(Br)ccc2c(=O)n1Cc1ccc(S(C)(=O)=O)cc1 = 19
Cc1cccc(-c2cc(-c3c[nH]nc3-c3ccccn3)ccn2)c1 = 12
Cc1nnc(-c2ccc(C)c(-c3ccc(C(=O)O)cc3)c2)o1 = 2

Qu. Can you share its %Inh? I mean this molecule: Cc1nc(N(C)[C@H]2CN(C(=O)CC#N)CC[C@H]2C)c2cc[nH]c2n1
Ans. 0

---

Please provide measured %Inh for the entries that follow.
System: PFTK1
Construct: gene CDK14
Condition details: concentration: 1 μM, replicates: in singlicate; n = 1
Numbers only, in %.

Previously resolved entries follow.
FC(F)(F)c1ccc(-c2ncn(CCCN3CCOCC3)c2-c2ccncc2)cc1 = 0
CCc1ccc(-c2ccc3c(c2)-c2nn(C)cc2S(=O)(=O)N3C)cc1 = 9
CCC(=O)c1c(-c2ccccc2)c2cc(Cl)ccc2c(=O)n1Cc1ccc(C(=O)O)cc1 = 0

// switching to the query compound
Qu. Can you share its %Inh? I mean this compound: OCCCNc1nccc(-c2c(-c3cccc(C(F)(F)F)c3)nn3cc(C(F)(F)F)ccc23)n1
Ans. 18

---

Test system: AMPK-alpha2
Construct: gene PRKAA2
Condition details: concentration: 1 μM, replicates: in singlicate; n = 1
Parameter: %Inh
Answer as a quantity: numeral, then unit.

COc1cccc(-n2cnc3c(N)ncnc32)c1 [SKF-97416] = 15%
FC(F)(F)c1ccc(-c2ncn(CCCN3CCOCC3)c2-c2ccncc2)cc1 [SB-217780] = 4%
Nc1ncnc2c1ncn2-c1cccc(F)c1 [SKF-97560] = 0%
O=C(Nc1n[nH]c2nc(-c3ccccc3)c(Br)cc12)C1CC1 [SB-708998] = 18%

For the 7 compounds below, give their %Inh values.
1. O=C(Nc1ccc2c(c1)OCO2)NC1CCN(c2ccnc(NCc3ccc(F)cc3)n2)CC1 [GSK1379859]
2. COc1cc2nccc(Nc3ccc(OCc4ccc(NC(C)=O)cc4)cc3)c2cc1OC.Cl [GW440135]
3. COC(=O)c1c(-c2ccccc2)c2cc(C)ccc2c(=O)n1Cc1ccccc1
4. Cl.NS(=O)(=O)c1cccc(Nc2cc(-c3ccc(F)cc3)n[nH]2)c1 [GW824645]
5. CN1C(=O)C(Nc2cc(Cl)c(O)c(Cl)c2)=C(c2ccc(Cl)cc2)C1=O [SB-404321]
6. COc1cccc(C2=C(N(C)c3ccccc3)C(=O)NC2=O)c1 [SB-334865]
7. Cc1nnc(-c2ccc(C)c(-c3ccc(C(=O)O)cc3)c2)o1 [GW608005]

Ans.
["0%", "10%", "0%", "18%", "0%", "13%", "0%"]

---

Test system: TAOK1
Condition details: concentration: 1 μM, replicates: in singlicate; n = 1
Please provide measured %Inh for the entries that follow.
Give bare numbers, in %.

Previously resolved entries follow.
COc1ccc(-c2cc3c(C)nc(N)nc3n([C@H]3CC[C@H](OCCO)CC3)c2=O)cn1 = 0
COc1cc2ncn(-c3cc(OCc4ccc(S(C)(=O)=O)cc4)c(C(N)=O)s3)c2cc1OC [GW869979] = 18
COc1cc(Nc2nccc(N3CCC(NC(=O)C(C)c4ccc(Cl)cc4)C3)n2)cc(OC)c1OC (centres unmarked) [GSK1379757] = 0
Cc1c(Cn2c(C)nn3c(=O)cc(N4CCO[C@H](C)C4)nc23)cccc1C(F)(F)F [GSK2373690] = 0
COc1ccc(CNC(=O)NC2CCN(c3ccnc(Nc4ccc(F)cc4)n3)C2)cc1 (centres unmarked) [GSK1379706] = 0
CCCNC(=O)Nc1ccc(Oc2ncnc3ccn(C)c23)cc1 = 0
O=C(NCCNc1ccnc(Nc2ccc(F)cc2)n1)Nc1ccc2c(c1)OCO2 [GSK1379882] = 0

// switching to the query molecule
Qu. Identify the measured %Inh of COc1cc(Nc2nccc(N3CCC(NC(=O)C4COc5ccccc5O4)C3)n2)cc(OC)c1OC (centres unmarked) [GSK1379761] for TAOK1.
Ans. 11
